log10 Ki, 5-hydroxytryptamine receptor 2A (Rattus norvegicus, UniProt P14842), per-entry values.
A value of 2 here means Ki of 100 in nM, since values are log10.

- STRUCTURE_STRING: "Cn1c(=O)c2c(ncn2CCCCN2CCN(c3ccccc3)CC2)n(C)c1=O"
  log10 Ki: 2.71
- STRUCTURE_STRING: "Cn1c(=O)c2c(ncn2CCCN2CCc3ccccc3C2)n(C)c1=O"
  log10 Ki: 4.02
- STRUCTURE_STRING: "COc1ccccc1N1CCN(CCCCCn2cnc3c2c(=O)n(C)c(=O)n3C)CC1.Cl"
  log10 Ki: 2.78
- STRUCTURE_STRING: "Cn1c(=O)c2c(ncn2CCCCN2CCN(c3cccc(Cl)c3Cl)CC2)n(C)c1=O"
  log10 Ki: 2.21
- STRUCTURE_STRING: "Cn1c(=O)c2c(ncn2CCCCN2CCN(c3ccc(Cl)c(Cl)c3)CC2)n(C)c1=O"
  log10 Ki: 2.66

Using the record for `Cl.Cn1c(=O)c2c(ncn2CCCCCN2CCN(c3cccc(Cl)c3)CC2)n(C)c1=O` , state its measured log10 Ki.
1.73

Using the record for `Cl.Cn1c(=O)c2c(ncn2CCCCN2CCN(c3cccc(Cl)c3)CC2)n(C)c1=O` , state its measured log10 Ki.
2.01
